assay-overview: in vitro
condition-parameters: human, HEK293T cells
Description: Cytotoxicity against HEK293T cells assessed as cell viability at 1.9 uM by CellTiter-Glo assay relative to control
Non-standard residues stand in square brackets, D forms with d. Residues, ends and D or L forms follow the SMILES beside them. *: point of attachment. X1 = O=C(OCCCS*)Oc1ccc2nc(C3=N[C@@H](C(=O)O)CS3)sc2c1; Mpa = O=C(O)CCS
Measured viability at 1.9 µM by item

1. CC(C)C[C@H](NC(=O)[C@H](CO)NC(=O)CNC(=O)CCSSCCCOC(=O)Oc1ccc2nc(C3=N[C@@H](C(=O)O)CS3)sc2c1)C(=O)N[C@@H](CCCCN)C(=O)N[C@H](C(=O)N[C@@H](CCCNC(=N)N)C(=O)N[C@H](C(=O)N[C@@H](CC(C)C)C(=O)N[C@@H](CCCCN)C(=O)N[C@@H](CCCNC(=N)N)C(N)=O)C(C)C)[C@@H](C)O ([Mpa](X1)GSLKTRVLKR-NH2) | 101%
2. CC(C)C[C@H](NC(=O)[C@H](CO)NC(=O)CCSSCCCOC(=O)Oc1ccc2nc(C3=N[C@@H](C(=O)O)CS3)sc2c1)C(=O)N[C@@H](CCCCN)C(=O)N[C@H](C(=O)N[C@@H](CCCNC(=N)N)C(=O)N[C@H](C(=O)N[C@@H](CC(C)C)C(=O)N[C@@H](CCCCN)C(=O)N[C@@H](CCCNC(=N)N)C(=O)N[C@@H](Cc1c[nH]c2ccccc12)C(N)=O)C(C)C)[C@@H](C)O ([Mpa](X1)SLKTRVLKRW-NH2) | 84%
3. CC(C)C[C@H](NC(=O)[C@H](CCCCN)NC(=O)[C@H](Cc1c[nH]c2ccccc12)NC(=O)[C@H](CCCNC(=N)N)NC(=O)[C@H](CCCCN)NC(=O)[C@H](CC(C)C)NC(=O)[C@@H](NC(=O)CCSSCCCOC(=O)Oc1ccc2nc(C3=N[C@@H](C(=O)O)CS3)sc2c1)C(C)C)C(=O)N[C@@H](Cc1ccccc1)C(=O)N[C@@H](CC(N)=O)C(=O)N[C@@H](CCCCN)C(N)=O ([Mpa](X1)VLKRWKLFNK-NH2) | 88.6%
4. CC(C)C[C@H](NC(=O)[C@H](CCCCN)NC(=O)[C@H](Cc1c[nH]c2ccccc12)NC(=O)[C@H](CCCNC(=N)N)NC(=O)[C@H](CCCCN)NC(=O)[C@H](CC(C)C)NC(=O)[C@@H](NC(=O)[C@H](CCCNC(=N)N)NC(=O)[C@@H](NC(=O)[C@H](CCCCN)NC(=O)CCSSCCCOC(=O)Oc1ccc2nc(C3=N[C@@H](C(=O)O)CS3)sc2c1)[C@@H](C)O)C(C)C)C(N)=O ([Mpa](X1)KTRVLKRWKL-NH2) | 77.7%
5. CC(C)C[C@H](NC(=O)[C@H](CCCCN)NC(=O)[C@H](Cc1c[nH]c2ccccc12)NC(=O)[C@H](CCCNC(=N)N)NC(=O)[C@H](CCCCN)NC(=O)[C@H](CC(C)C)NC(=O)[C@@H](NC(=O)[C@H](CCCNC(=N)N)NC(=O)[C@@H](NC(=O)CCSSCCCOC(=O)Oc1ccc2nc(C3=N[C@@H](C(=O)O)CS3)sc2c1)[C@@H](C)O)C(C)C)C(=O)N[C@@H](Cc1ccccc1)C(N)=O ([Mpa](X1)TRVLKRWKLF-NH2) | 94.3%

Endpoint output: viability at 1.9 µM of CC(C)C[C@H](NC(=O)[C@H](CCCCN)NC(=O)[C@H](Cc1c[nH]c2ccccc12)NC(=O)[C@H](CCCNC(=N)N)NC(=O)[C@H](CCCCN)NC(=O)[C@H](CC(C)C)NC(=O)[C@@H](NC(=O)[C@H](CCCNC(=N)N)NC(=O)CCSSCCCOC(=O)Oc1ccc2nc(C3=N[C@@H](C(=O)O)CS3)sc2c1)C(C)C)C(=O)N[C@@H](Cc1ccccc1)C(=O)N[C@@H](CC(N)=O)C(N)=O ([Mpa](X1)RVLKRWKLFN-NH2) . Value?
93.5%
